tested on: HCV 1a genotype replicon; test: HCV replicon assay (qRT-PCR or luciferase), genotype 1a; format: cell-based; settings: Hepatitis C virus, Table 12, range class, read-out: 1a EC50 Range
pEC50: −log10 of the molar value.
readout.kind: pEC50

Reference set (3 entries):
CC(C)[C@H](NC(=O)OC1CCC1)C(=O)N1CC2(CC2)C[C@H]1c1ncc(-c2ccc(C#Cc3ccc4nc([C@@H]5CC6(CC6)CN5C(=O)[C@@H](NC(=O)OC5CCC5)C(C)C)[nH]c4c3)cc2)[nH]1    < 8.00
COC(=O)N[C@@H](C(=O)N1CC2(CC2)C[C@H]1c1ncc(-c2ccc(C#Cc3ccc4nc([C@@H]5CC6(CC6)CN5C(=O)[C@H](NC(=O)OC)c5ccccc5)[nH]c4c3)cc2)[nH]1)c1ccccc1    > 9.00
COC(=O)N[C@H](C(=O)N1CC2(CC2)C[C@H]1c1ncc(-c2ccc(C#Cc3ccc4nc([C@@H]5C[C@H](C6CC6)CN5C(=O)[C@@H](NC(=O)OC)C(C)C)[nH]c4c3)cc2)[nH]1)C(C)C    > 9.00

As a next step, examine the molecule that follows.
# input What value of pEC50 has been recorded for this entry: COC(=O)N[C@@H](C(=O)N1CC2(CC2)C[C@H]1c1ncc(-c2ccc(C#Cc3ccc4nc([C@@H]5CC6(CC6)CN5C(=O)[C@H](NC(=O)OC)c5ccc(Cl)cc5)[nH]c4c3)cc2)[nH]1)c1ccc(Cl)cc1
# output < 8.00

* * *

Tested on: HCV 1b genotype replicon
Test: HCV replicon assay (qRT-PCR or luciferase), genotype 1b
Assay type: cell-based
Details: Hepatitis C virus, Table 12, numeric values, read-out: 1b EC50
Source text: HCV replicon cell lines (kindly provided by R. Bartenschlager) isolated from colonies as described by Lohman et. al. (Lohman et al. (1999) Science 285: 110-113, expressly incorporated by reference in its entirety) and used for all experiments. The HCV replicon has the nucleic acid sequence set forth in EMBL Accession No.: AJ242651, the coding sequence of which is from nucleotides 1801 to 8406. […]
readout.kind: pEC50
pEC50 field: float, defined as -log10 of concentration (mol/L).

# input What value of pEC50 has been recorded for this entry: COC(=O)N[C@H](C(=O)N1CCC[C@H]1c1ncc(-c2ccc(C#Cc3ccc4nc([C@@H]5C[C@@]6(CCCOC6)CN5C(=O)[C@@H](NC(=O)OC)C(C)C)[nH]c4c3)cc2)[nH]1)C(C)C
# output 11.05

# input What value of pEC50 has been recorded for this entry: COC(=O)N[C@H](C(=O)N1CC2(CC2)C[C@H]1c1ncc(-c2ccc(C#Cc3ccc4nc([C@@H]5CC6(CC6)CN5C(=O)[C@H](NC(=O)OC)c5ccccc5)[nH]c4c3)cc2)[nH]1)C(C)C
# output 11.22

# input What value of pEC50 has been recorded for this entry: COC(=O)N[C@H](C(=O)N1CCC[C@H]1c1ncc(-c2ccc(C#Cc3ccc4nc([C@@H]5C[C@]6(CCCOC6)CN5C(=O)[C@@H](NC(=O)OC)C(C)C)[nH]c4c3)cc2)[nH]1)C(C)C
# output 11.10

# input What value of pEC50 has been recorded for this entry: COC(=O)N[C@H](C(=O)N1CCC[C@H]1c1nc(-c2ccc(C#Cc3ccc4[nH]c([C@@H]5C[C@]6(CCOC6)CN5C(=O)[C@@H](NC(=O)OC)C(C)C)nc4c3)cc2)c[nH]1)C(C)C
# output 11.10

# input What value of pEC50 has been recorded for this entry: COC(=O)N[C@H](C(=O)N1CC2(CC2)C[C@H]1c1ncc(-c2ccc(C#Cc3ccc4nc([C@@H]5C[C@@]6(CCCOC6)CN5C(=O)[C@@H](NC(=O)OC)C(C)C)[nH]c4c3)cc2)[nH]1)C(C)C
# output 11.15

* * *

system: HCV 1a genotype replicon; assay: HCV replicon assay (qRT-PCR or luciferase), genotype 1a; assay type: cell-based; conditions: Hepatitis C virus, Table 12, range class, read-out: 1a EC50 Range
readout.kind: EC50

Reference set (5 entries):
COC(=O)N[C@@H](CCCCNC(N)=O)C(=O)N1CCC[C@H]1c1nc(-c2ccc(C#Cc3ccc4[nH]c([C@@H]5CC6(CC6)CN5C(=O)[C@@H](NC(=O)OC)C(C)C)nc4c3)cc2)c[nH]1    < 1 nM
COC(=O)N[C@H](C(=O)N1CC2(CC2)C[C@H]1c1nc(-c2cccnc2)c(-c2ccc(C#Cc3ccc4nc([C@@H]5CC6(CC6)CN5C(=O)[C@@H](NC(=O)OC)C(C)C)[nH]c4c3)cc2)[nH]1)C(C)C    < 1 nM
COC(=O)N[C@@H](C(=O)N1CC2(CC2)C[C@H]1c1ncc(-c2ccc(C#Cc3ccc4nc([C@@H]5CC6(CC6)CN5C(=O)[C@H](NC(=O)OC)c5cccc(F)c5)[nH]c4c3)cc2)[nH]1)c1cccc(F)c1    1 to 10 nM
COC(=O)N[C@H](C(=O)N1CC2(CC2)C[C@H]1c1nc(-c2ccc(C#Cc3ccc4[nH]c([C@@H]5CC6(CC6)CN5C(=O)[C@@H](NC(=O)OC)C(C)C)nc4c3)cc2)c(F)[nH]1)C(C)C    < 1 nM
COC(=O)N[C@H](C(=O)N1CC2(CC2)C[C@H]1c1nc2ccc(C#Cc3ccc(-c4cnc([C@@H]5CC6(CC6)CN5C(=O)[C@@H](N)C(C)C)[nH]4)cc3)cc2[nH]1)C(C)C    > 10 nM

# input What value of EC50 has been recorded for this entry: COC(=O)N[C@@H](CF)C(=O)N1CC2(CC2)C[C@H]1c1nc(-c2ccc(C#Cc3ccc4[nH]c([C@@H]5CC6(CC6)CN5C(=O)[C@@H](NC(=O)OC)C(C)C)nc4c3)cc2)c[nH]1
# output < 1 nM

# input What value of EC50 has been recorded for this entry: COC(=O)N[C@H](C(=O)N1CC2(CC2)C[C@H]1c1ncc(-c2ccc(C#Cc3ccc4nc([C@@H]5CC6(CC6)CN5C(=O)[C@H](NC(=O)OC)c5ccsc5)[nH]c4c3)cc2)[nH]1)C(C)C
# output < 1 nM

# input What value of EC50 has been recorded for this entry: COC(=O)N[C@H](C(=O)N1CC2(CC2)C[C@H]1c1nc(-c2ccc(C#Cc3ccc4[nH]c([C@@H]5CC6(CC6)CN5C(=O)[C@@H](NC(=O)OC)C(C)C)nc4c3)cc2)c(-c2ccncc2)[nH]1)C(C)C
# output < 1 nM

# input What value of EC50 has been recorded for this entry: COC(=O)N[C@H](C(=O)N1CC2(CC2)C[C@H]1c1nc(-c2ccc(-c3ccc4[nH]c([C@@H]5CC6(CC6)CN5C(=O)[C@@H](NC(=O)OC)C(C)C)nc4c3)cc2)c[nH]1)C(C)C
# output 1 to 10 nM

* * *

tested on: HCV 1b genotype replicon; experiment: HCV replicon assay (qRT-PCR or luciferase), genotype 1b; type: cell-based; conditions: Hepatitis C virus, Table 12, numeric values, read-out: 1b EC50
Measured EC50 accompanies every entry in the list below.

COC(=O)N[C@@H](CCCNC(N)=O)C(=O)N1CC2(CC2)C[C@H]1c1nc(-c2ccc(C#Cc3ccc4[nH]c([C@@H]5CC6(CC6)CN5C(=O)[C@@H](NC(=O)OC)C(C)C)nc4c3)cc2)c[nH]1 [Example 616]    0.495 nM
COC(=O)N[C@H](C(=O)N1CCC[C@H]1c1ncc(-c2ccc(C#Cc3ccc4nc([C@@H]5C[C@@]6(CCCCO6)CN5C(=O)[C@@H](NC(=O)OC)C(C)C)[nH]c4c3)cc2)[nH]1)C(C)C [Example 632]    0.013 nM

As a next step, examine the molecule that follows.
# input What value of EC50 has been recorded for this entry: COC(=O)N[C@H](C(=O)N1CC2(CC2)C[C@H]1c1nc(-c2ccc(C#Cc3ccc4[nH]c([C@@H]5CC6(CC6)CN5C(=O)[C@@H](NC(=O)OC)C(C)C)nc4c3)cc2)c[nH]1)C(C)C [Example 548]
# output 0.004 nM

* * *

system: HCV 1b genotype replicon; assay: HCV replicon assay (qRT-PCR or luciferase), genotype 1b; assay type: cell-based; conditions: Hepatitis C virus, Table 12, numeric values, read-out: 1b EC50
Cut-off 0.01 nM on EC50: below means MET, at or above means NOT MET.

COC(=O)N[C@H](C(=O)N1C[C@](C)(F)C[C@H]1c1nc(-c2ccc(C#Cc3ccc4[nH]c([C@@H]5C[C@@]6(CCCO6)CN5C(=O)[C@@H](NC(=O)OC)C(C)C)nc4c3)cc2)c[nH]1)C(C)C [Example 567]    NOT MET
COC(=O)N[C@H](C(=O)N1CC2(CC2)C[C@H]1c1ncc(-c2ccc(C#Cc3ccc4nc([C@@H]5CC6(CC6)CN5C(=O)[C@H](NC(=O)OC)c5ccc(F)cc5)[nH]c4c3)cc2)[nH]1)C(C)C [Example 580]    MET
COC(=O)N[C@H](C(=O)N1CCC[C@H]1c1nc(-c2ccc3nc(-c4ccc5[nH]c([C@@H]6CC7(CC7)CN6C(=O)[C@@H](NC(=O)OC)C(C)C)nc5c4)ncc3c2)c[nH]1)C(C)C [Example 644]    NOT MET

# input Please determine if COC(=O)N[C@H](C(=O)N1C[C@]2(CCCO2)C[C@H]1c1nc(-c2ccc(C#Cc3ccc4[nH]c([C@@H]5CC6(CC6)CN5C(=O)[C@@H](NC(=O)OC)C(C)C)nc4c3)cc2)c[nH]1)C(C)C [Example 546] is below 0.01 nM in terms of EC50.
# output NOT MET

# input Please determine if COC(=O)N[C@H](C(=O)N1CCC[C@H]1c1nc(-c2ccc3cc(-c4ccc5[nH]c([C@@H]6CC7(CC7)CN6C(=O)[C@@H](NC(=O)OC)C(C)C)nc5c4)ccc3c2)c[nH]1)C(C)C [Example 692] is below 0.01 nM in terms of EC50.
# output NOT MET

# input Please determine if COC(=O)N[C@H](C(=O)N1CC2(CC2)C[C@H]1c1nc(-c2ccc(C#Cc3ccc4[nH]c([C@@H]5C[C@@]6(CCCO6)CN5C(=O)[C@@H](NC(=O)OC)C(C)C)nc4c3)cc2)c[nH]1)C(C)C [Example 555] is below 0.01 nM in terms of EC50.
# output MET
